# targetOrSystem: Caspase-6 (Homo sapiens) (UniProt P55212)
# Sequence (P55212 24-179 limits assumed): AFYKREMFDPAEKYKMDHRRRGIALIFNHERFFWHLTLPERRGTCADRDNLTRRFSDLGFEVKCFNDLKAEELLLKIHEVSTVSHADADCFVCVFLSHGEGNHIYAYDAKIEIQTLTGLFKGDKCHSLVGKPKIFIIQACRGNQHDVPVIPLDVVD
# Sequence (P55212 194-293 limits assumed): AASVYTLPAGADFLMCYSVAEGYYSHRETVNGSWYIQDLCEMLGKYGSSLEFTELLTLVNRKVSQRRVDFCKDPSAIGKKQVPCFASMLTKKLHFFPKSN
# measurementDescription: human caspase-6 inhibitors, primary screen, biochemical, VEID-R110 fluorescence, single point, set 2 (AID 686996)
# measurementConditions: purified caspase-6, Z-VEID-R110 cleavage fluorescence; at 12.5 µM
The campaign covered roughly 350,000 compounds. About 1,900 (0.54%) were called active.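 The calls were made as follows: active = mean inhibition across replicates at least about 35%, with every replicate also reaching that limit (limit read from the data); inconclusive = only one of the two criteria met; inactive = neither criterion met.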 The full list was thinned out, with actives kept by preference.
Labels: active, inactive

{"compound": "Cc1cccc(S(=O)(=O)N2CC[C@@H]3[C@H]2c2cc(C#Cc4ccccc4F)ccc2N[C@@H]3CO)c1", "targetOrSystem": "Caspase-6 (Homo sapiens) (UniProt P55212)", "categoryLabel": "inactive"}
{"compound": "O=C(C[C@@H]1C=C[C@H](NC(=O)C2CCOCC2)[C@H](CO)O1)NCc1ccncc1", "targetOrSystem": "Caspase-6 (Homo sapiens) (UniProt P55212)", "categoryLabel": "inactive"}
{"compound": "CC(C)c1nc(SCC(=O)Nc2cccc(C(=O)O)c2)c2c3c(sc2n1)CCCC3", "targetOrSystem": "Caspase-6 (Homo sapiens) (UniProt P55212)", "categoryLabel": "inactive"}
{"compound": "CNC[C@@H]1OCCCC[C@@H](C)Oc2ccc(NS(C)(=O)=O)cc2C(=O)N([C@H](C)CO)C[C@@H]1C", "targetOrSystem": "Caspase-6 (Homo sapiens) (UniProt P55212)", "categoryLabel": "inactive"}
{"compound": "O=C(CCc1nc2sc3c(c2c(=O)[nH]1)CCCC3)NCC(=O)Nc1ccccc1Br", "targetOrSystem": "Caspase-6 (Homo sapiens) (UniProt P55212)", "categoryLabel": "active"}
{"compound": "Cc1ccc(S(=O)(=O)N(C)C[C@@H]2Oc3c(NS(C)(=O)=O)cccc3C(=O)N([C@@H](C)CO)C[C@H]2C)cc1", "targetOrSystem": "Caspase-6 (Homo sapiens) (UniProt P55212)", "categoryLabel": "inactive"}
{"compound": "COc1ccc(-c2cc(=O)oc3cc(OCC(=O)N[C@@H](Cc4c[nH]c5ccccc45)C(=O)O)ccc23)cc1", "targetOrSystem": "Caspase-6 (Homo sapiens) (UniProt P55212)", "categoryLabel": "inactive"}
{"compound": "CC(=O)N1[C@@H](CO)[C@@H](c2ccc(C3=CCCC3)cc2)C12CN(C(=O)C1CC1)C2", "targetOrSystem": "Caspase-6 (Homo sapiens) (UniProt P55212)", "categoryLabel": "inactive"}
{"compound": "COc1c(O)cc2oc(-c3ccc(O)c(O)c3)cc(=O)c2c1O", "targetOrSystem": "Caspase-6 (Homo sapiens) (UniProt P55212)", "categoryLabel": "active"}
{"compound": "COC(=O)c1cn(C(=O)c2ccc(Cl)cc2)c2ccccc12", "targetOrSystem": "Caspase-6 (Homo sapiens) (UniProt P55212)", "categoryLabel": "inactive"}
{"compound": "C#CCN1C(Cc2ccccc2)C(=O)O[C@H](C2CCCCC2)[C@@H]1/C=C/C1CC1 (stereo not given in full)", "targetOrSystem": "Caspase-6 (Homo sapiens) (UniProt P55212)", "categoryLabel": "inactive"}
{"compound": "O=C(C[C@H]1CC[C@@H](NC(=O)c2ccncc2)[C@@H](CO)O1)Nc1ccccc1", "targetOrSystem": "Caspase-6 (Homo sapiens) (UniProt P55212)", "categoryLabel": "inactive"}
{"compound": "COc1ccc(-c2cc(C(=O)NC(Cc3c[nH]c4ccccc34)C(=O)O)c(C)o2)cc1OC (stereo not given)", "targetOrSystem": "Caspase-6 (Homo sapiens) (UniProt P55212)", "categoryLabel": "active"}
{"compound": "N#C[C@H]1[C@@H](c2ccccc2-c2ccccc2F)[C@@H](CO)N1C(=O)C1CCC1", "targetOrSystem": "Caspase-6 (Homo sapiens) (UniProt P55212)", "categoryLabel": "inactive"}
{"compound": "COc1cccc(CNC(=O)[C@H]2CCCN2C(=O)[C@H]2CCCN2C(=O)C2CCCCC2)c1", "targetOrSystem": "Caspase-6 (Homo sapiens) (UniProt P55212)", "categoryLabel": "inactive"}
{"compound": "C[C@@H]1CN([C@@H](C)CO)S(=O)(=O)c2ccc(C3=CCCCC3)cc2O[C@@H]1CN(C)C(=O)CN(C)C", "targetOrSystem": "Caspase-6 (Homo sapiens) (UniProt P55212)", "categoryLabel": "inactive"}
{"compound": "COc1ccccc1C#Cc1ccc([C@@H]2[C@@H](CO)N3CCCCN(S(C)(=O)=O)C[C@@H]23)cc1", "targetOrSystem": "Caspase-6 (Homo sapiens) (UniProt P55212)", "categoryLabel": "inactive"}
{"compound": "COc1ccc(C(=O)N2C[C@@H]3[C@H](c4ccccc42)[C@H](CO)N3Cc2ccc3c(c2)OCO3)cc1", "targetOrSystem": "Caspase-6 (Homo sapiens) (UniProt P55212)", "categoryLabel": "inactive"}
{"compound": "COc1ccc(-c2cc3ncccc3cn2)cc1", "targetOrSystem": "Caspase-6 (Homo sapiens) (UniProt P55212)", "categoryLabel": "inactive"}
{"compound": "O=C(Nc1cccc(F)c1)c1cc(-c2ccco2)nc2ccccc12", "targetOrSystem": "Caspase-6 (Homo sapiens) (UniProt P55212)", "categoryLabel": "inactive"}
{"compound": "O=C(Nc1ccc(-c2ccccc2)cc1)[C@@H]1[C@@H](CO)[C@@H]2Cn3c(cccc3=O)[C@H]1N2Cc1ccncc1", "targetOrSystem": "Caspase-6 (Homo sapiens) (UniProt P55212)", "categoryLabel": "inactive"}
{"compound": "C[C@H](CO)N1C[C@H](C)[C@H](CN(C)C(=O)C2CCOCC2)Oc2ncc(-c3ccccc3F)cc2C1=O", "targetOrSystem": "Caspase-6 (Homo sapiens) (UniProt P55212)", "categoryLabel": "inactive"}
{"compound": "Cc1noc(C)c1S(=O)(=O)N(C)C[C@H]1OCCCC[C@@H](C)Oc2ccc(NC(=O)C3CCCCC3)cc2C(=O)N([C@H](C)CO)C[C@@H]1C", "targetOrSystem": "Caspase-6 (Homo sapiens) (UniProt P55212)", "categoryLabel": "inactive"}
{"compound": "COC(=O)C(=Nc1ccccc1)/C(C(=O)C(=O)N(C)c1ccccc1)=C(\\O)c1ccc(Cl)cc1", "targetOrSystem": "Caspase-6 (Homo sapiens) (UniProt P55212)", "categoryLabel": "active"}
{"compound": "COCCNc1nc(Nc2ccccc2Cl)c2sc(-c3ccccc3)cc2n1", "targetOrSystem": "Caspase-6 (Homo sapiens) (UniProt P55212)", "categoryLabel": "active"}
{"compound": "C[C@@H]1CN([C@H](C)CO)C(=O)Cc2cc(NC(=O)NC3CCCCC3)ccc2O[C@H]1CN(C)S(=O)(=O)c1ccc(Cl)cc1", "targetOrSystem": "Caspase-6 (Homo sapiens) (UniProt P55212)", "categoryLabel": "inactive"}
{"compound": "COc1ccc(C=Nc2cccc3ncccc23)cc1", "targetOrSystem": "Caspase-6 (Homo sapiens) (UniProt P55212)", "categoryLabel": "active"}
{"compound": "C[C@H](CO)N1C[C@H](C)[C@@H](CN(C)Cc2cccc(F)c2)Oc2cc(C#CC3CC3)ccc2S1(=O)=O", "targetOrSystem": "Caspase-6 (Homo sapiens) (UniProt P55212)", "categoryLabel": "inactive"}
{"compound": "Cc1ccc(S(=O)(=O)N[C@@H]2CC[C@H](CCn3cc(C4(O)CCCC4)nn3)O[C@H]2CO)cc1", "targetOrSystem": "Caspase-6 (Homo sapiens) (UniProt P55212)", "categoryLabel": "inactive"}
{"compound": "CO[C@@H]1CN(C)C(=O)c2ccc(NS(=O)(=O)c3cccc(C)c3)cc2OC[C@@H](C)NC[C@H]1C", "targetOrSystem": "Caspase-6 (Homo sapiens) (UniProt P55212)", "categoryLabel": "inactive"}
{"compound": "COc1cccc(NC(=O)Nc2ccc3c(c2)C(=O)N(C)[C@@H]2CC[C@@H](CC(=O)NCCc4ccccc4)O[C@H]2CO3)c1", "targetOrSystem": "Caspase-6 (Homo sapiens) (UniProt P55212)", "categoryLabel": "inactive"}
{"compound": "O=C(CN1CCN(S(=O)(=O)c2cc(Cl)ccc2Cl)CC1)c1ccc(O)c(O)c1", "targetOrSystem": "Caspase-6 (Homo sapiens) (UniProt P55212)", "categoryLabel": "active"}
{"compound": "O=C(C1CCC1)N1CC[C@@H]2[C@H]1c1cc(C#Cc3ccc(F)cc3)ccc1N[C@@H]2CO", "targetOrSystem": "Caspase-6 (Homo sapiens) (UniProt P55212)", "categoryLabel": "inactive"}
{"compound": "O=S(=O)(c1cc(Cl)ccc1Cl)N1CCN(Cc2ccco2)CC1", "targetOrSystem": "Caspase-6 (Homo sapiens) (UniProt P55212)", "categoryLabel": "inactive"}
{"compound": "O=C1C[C@@](C(=O)NCC(F)(F)F)(c2ccc([N+](=O)[O-])cc2)[C@@H](c2ccc(CO)cc2I)N1C1CCCCC1", "targetOrSystem": "Caspase-6 (Homo sapiens) (UniProt P55212)", "categoryLabel": "inactive"}
